# Tested on: Isolated Guinea Pig Bronchial Smooth Muscles
# MEASUREMENT_PROTOCOL: Effect on Big Endothelin-1-induced Contraction in Isolated Guinea Pig Bronchial Smooth Muscles
# RECORDED_CONDITIONS: Cavia porcellus; 100 nM big endothelin-1; guinea pig bronchia; calculated; read-out: IC50 value, inhibition of big endothelin-1-induced contraction
# Procedure: Bronchia (outer diameter approximately 2 mm) were isolated from the lung of a guinea pig, and the connective tissue, lung parenchymal tissue, etc. were peeled off, and then a ring preparation (4 mm in length) was prepared. These samples were placed in a 5 ml Magnus' tube filled with Krebs-Henseleit solution saturated with a gas mixture of 95% O2 and 5% CO2, and a change in tension was isometrically measured and recorded. […]
EXPERIMENTAL_READOUT: pIC50
// pIC50: -log10(molar conc.)

Bench note, Isolated Guinea Pig Bronchial Smooth Muscles: entry CC(C)C[C@H](NC(CCc1cccc2ccccc12)P(=O)(O)O)C(=O)N[C@@H](Cc1c[nH]c2ccccc12)C(=O)O (single isomer, unassigned) [Example 2 (Isomer B)] , its pIC50 = 4.80

----------
# TARGET_ENTITY: endothelin-converting enzyme (ECE) (Bos taurus, UniProt P42891)
# Construct: ECE was prepared according to the method already published by Yano, et.al; endogenous in cells
# Sequence (P42891 1-754): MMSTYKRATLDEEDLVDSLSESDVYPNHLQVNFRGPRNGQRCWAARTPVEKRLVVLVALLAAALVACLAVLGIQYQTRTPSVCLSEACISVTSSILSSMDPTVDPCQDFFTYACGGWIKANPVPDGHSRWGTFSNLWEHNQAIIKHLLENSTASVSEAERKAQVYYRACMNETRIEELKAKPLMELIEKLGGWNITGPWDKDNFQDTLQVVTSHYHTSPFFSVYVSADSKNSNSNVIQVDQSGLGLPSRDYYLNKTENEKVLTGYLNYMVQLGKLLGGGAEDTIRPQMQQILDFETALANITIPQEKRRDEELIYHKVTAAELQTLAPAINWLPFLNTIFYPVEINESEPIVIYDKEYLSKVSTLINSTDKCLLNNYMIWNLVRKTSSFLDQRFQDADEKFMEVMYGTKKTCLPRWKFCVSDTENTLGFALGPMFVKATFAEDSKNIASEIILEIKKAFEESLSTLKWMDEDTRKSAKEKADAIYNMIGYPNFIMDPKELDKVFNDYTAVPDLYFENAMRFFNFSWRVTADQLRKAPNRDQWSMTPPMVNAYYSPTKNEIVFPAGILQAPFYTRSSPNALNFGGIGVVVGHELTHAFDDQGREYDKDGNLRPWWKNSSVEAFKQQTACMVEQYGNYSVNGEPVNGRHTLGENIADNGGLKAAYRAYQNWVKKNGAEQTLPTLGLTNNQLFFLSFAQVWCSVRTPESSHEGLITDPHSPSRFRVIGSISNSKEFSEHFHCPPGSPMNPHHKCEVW
# MEASUREMENT_PROTOCOL: ECE Activity Inhibition Test (endothelin-1 produced from big endothelin-1, RIA)
# Format: biochemical
# RECORDED_CONDITIONS: 10 μM test compound; 1 μM big endothelin-1; pH 7.2, 37° C., 90 minutes
Reported inhibition at 10 µM values for the following compounds.
Just the number in %, nothing appended.

COMPOUND | UNIT_TEXT | inhibition at 10 µM
CC(C)C[C@H](NC(CCc1ccccc1)P(=O)(O)O)C(=O)N[C@@H](Cc1c[nH]c2ccccc12)C(=O)O (stereo partly shown) | % | 84
O=C(O)[C@H](Cc1c[nH]c2ccccc12)NC(=O)[C@H](Cc1ccccc1)NC(CCc1ccccc1)P(=O)(O)O (single isomer, unassigned) [Example 10 (Isomer B)] | % | 76
CC(C)C[C@H](NP(=O)(O)O[C@@H]1O[C@@H](C)[C@H](O)[C@@H](O)[C@H]1O)C(=O)N[C@@H](Cc1c[nH]c2ccccc12)C(=O)O [Phosphoramidon, reference compound] | % | 64

Now consider the entry below.
Input CC(C)C[C@H](NC(CCc1c[nH]c2ccccc12)P(=O)(O)O)C(=O)N[C@@H](Cc1c[nH]c2ccccc12)C(=O)O (stereo partly shown) . Output inhibition at 10 µM: 80
